Biological target: T1, Clostridium difficile toxin B (TcdB) (Clostridium difficile strain 10463, UniProt P18177 1-2366)
T1 construct: range 1-2366
T1 sequence (P18177 whole entry): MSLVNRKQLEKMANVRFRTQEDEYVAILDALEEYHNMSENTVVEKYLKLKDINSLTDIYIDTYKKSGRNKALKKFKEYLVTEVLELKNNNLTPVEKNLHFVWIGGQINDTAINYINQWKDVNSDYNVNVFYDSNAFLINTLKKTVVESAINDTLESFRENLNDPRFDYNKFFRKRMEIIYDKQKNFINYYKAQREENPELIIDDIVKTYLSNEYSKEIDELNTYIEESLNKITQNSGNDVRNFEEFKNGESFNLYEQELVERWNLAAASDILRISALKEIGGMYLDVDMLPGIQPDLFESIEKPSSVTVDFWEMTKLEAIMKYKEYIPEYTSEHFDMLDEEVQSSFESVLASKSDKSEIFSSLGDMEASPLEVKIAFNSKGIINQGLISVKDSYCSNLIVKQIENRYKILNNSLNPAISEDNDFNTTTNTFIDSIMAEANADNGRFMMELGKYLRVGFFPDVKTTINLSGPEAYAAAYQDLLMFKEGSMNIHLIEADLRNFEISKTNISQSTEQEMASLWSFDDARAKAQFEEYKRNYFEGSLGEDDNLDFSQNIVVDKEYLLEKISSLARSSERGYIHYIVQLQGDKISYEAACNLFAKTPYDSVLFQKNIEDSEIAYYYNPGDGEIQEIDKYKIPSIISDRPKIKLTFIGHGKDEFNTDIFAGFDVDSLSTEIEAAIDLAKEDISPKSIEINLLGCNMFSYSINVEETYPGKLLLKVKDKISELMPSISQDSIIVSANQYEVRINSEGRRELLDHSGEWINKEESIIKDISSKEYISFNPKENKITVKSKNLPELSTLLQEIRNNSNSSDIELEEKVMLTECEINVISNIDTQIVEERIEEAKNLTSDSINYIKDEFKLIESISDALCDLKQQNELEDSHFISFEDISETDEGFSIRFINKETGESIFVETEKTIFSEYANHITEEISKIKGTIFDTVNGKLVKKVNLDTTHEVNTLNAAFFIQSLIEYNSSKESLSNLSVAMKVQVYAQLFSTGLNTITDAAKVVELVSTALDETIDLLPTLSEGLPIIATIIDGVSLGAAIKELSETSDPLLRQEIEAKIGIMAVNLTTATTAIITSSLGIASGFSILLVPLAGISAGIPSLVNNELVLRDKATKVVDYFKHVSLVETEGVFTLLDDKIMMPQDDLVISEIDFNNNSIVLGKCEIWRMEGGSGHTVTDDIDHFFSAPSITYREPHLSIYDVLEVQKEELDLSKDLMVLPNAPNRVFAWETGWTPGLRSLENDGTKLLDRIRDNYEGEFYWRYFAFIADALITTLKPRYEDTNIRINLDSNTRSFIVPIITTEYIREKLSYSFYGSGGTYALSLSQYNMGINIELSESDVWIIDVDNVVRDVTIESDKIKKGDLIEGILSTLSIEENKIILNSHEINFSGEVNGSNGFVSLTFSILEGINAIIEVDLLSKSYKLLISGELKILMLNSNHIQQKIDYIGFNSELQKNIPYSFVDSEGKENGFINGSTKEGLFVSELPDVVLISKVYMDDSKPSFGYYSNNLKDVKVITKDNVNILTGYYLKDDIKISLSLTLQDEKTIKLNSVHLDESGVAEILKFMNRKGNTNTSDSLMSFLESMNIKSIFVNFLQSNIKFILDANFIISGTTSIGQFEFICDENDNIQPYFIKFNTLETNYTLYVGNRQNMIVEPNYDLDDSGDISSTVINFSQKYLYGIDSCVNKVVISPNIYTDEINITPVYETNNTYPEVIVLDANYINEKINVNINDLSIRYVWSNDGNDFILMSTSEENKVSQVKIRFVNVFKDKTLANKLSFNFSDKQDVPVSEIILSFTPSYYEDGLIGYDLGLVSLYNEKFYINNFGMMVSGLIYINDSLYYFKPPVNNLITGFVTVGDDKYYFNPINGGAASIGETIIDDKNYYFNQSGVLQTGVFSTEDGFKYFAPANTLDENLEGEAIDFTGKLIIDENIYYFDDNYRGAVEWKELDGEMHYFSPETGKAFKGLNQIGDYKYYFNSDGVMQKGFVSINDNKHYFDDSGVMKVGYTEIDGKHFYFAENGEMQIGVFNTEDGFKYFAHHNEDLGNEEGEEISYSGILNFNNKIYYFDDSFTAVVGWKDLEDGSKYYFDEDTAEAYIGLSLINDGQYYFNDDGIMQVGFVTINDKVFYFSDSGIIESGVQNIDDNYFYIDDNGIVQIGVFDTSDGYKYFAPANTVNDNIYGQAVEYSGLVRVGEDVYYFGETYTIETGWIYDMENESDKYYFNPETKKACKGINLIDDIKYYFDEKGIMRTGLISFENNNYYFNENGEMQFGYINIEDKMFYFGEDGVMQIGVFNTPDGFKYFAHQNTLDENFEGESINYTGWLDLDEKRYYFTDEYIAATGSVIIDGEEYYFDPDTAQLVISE
Test: ELISA, antigen coated
Measure Name: binding result

Guide cases for binding result, answers given:
Binder: A5.1 (VHH, also called anti-TcdA VHH A5.1) VHH: QVKLEESGGGLVQAGGSLRLSCAASGRTFSMYRMGWFRQAPGKEREFVGVITRNGSSTYYADSVKGRFTISRDNAKNTVYLQMNSLKPEDTALYYCAATSGSSYLDAAHVYDYWGQGTQVTVSS
Measurement: no binding
//
Binder: A4.2 (VHH, also called anti-TcdA VHH A4.2) VHH: QVKLEESGGGLVQAGGSLRLSCAASGRTFNTLSMGWFRQAPGKEREFVAAVSRSGGSTYYADSVKGRFTISRDNAKNTVYLQMNSLKPEDTAVYYCAAAATKSNTTAYRLSFDYWGQGTQVTVSS
Measurement: no binding
//
Binder: A19.2 (VHH, also called anti-TcdA VHH A19.2) VHH: QVKLEESGGGLVQPGGSLRLSCAASGRTLSSYIVAWFRQAPGKEREFVAGISRRGGNSAYVESVKGRFTISRDNAKNTVYLQMNSLKPEDTAVYYCAADGSVAGWGRRSVSVSSYDYWGQGTQVTVSS
Measurement: no binding
//
Binder: A20.1 (VHH, also called anti-TcdA VHH A20.1) VHH: QVQLVESGGGLAQAGGSLRLSCAASGRTFSMDPMAWFRQPPGKEREFVAAGSSTGRTTYYADSVKGRFTISRDNAKNTVYLQMNSLKPEDTAVYYCAAAPYGANWYRDEYAYWGQGTQVTVSS
Measurement: no binding

Let us move to another entry and its binding result.
Task: What does the data say about its binding result? Entry: A24.1 (VHH, also called anti-TcdA VHH A24.1) VHH: QVQLVESGGGLVQAGGSLRLSCAASIRSFSNRNMGWFRQPPGKEREFVAGISWGGGSTRYADSVKGRFTISRDNAKKTVYLQMNSLKPEDTAVYYCAAEFGHNIATSSDEYDYWGQGTQVTVSS
Output: no binding
